Exercise: for every item that follows, state its recorded Trep Concentration 20 min.
Assay: Stability in liver microsomes, rat
Numbers only, in µM.

Below are worked cases with known answers.
{"columns": ["compound", "Trep Concentration 20 min (µM)"],
 "data": [
  ["CCCCCC(CCC1C(O)CC2Cc3c(cccc3OCC(=O)O)CC21)Oc1ccccc1C(=O)O (centres unmarked)", 0],
  ["CCCCCC(CCC1C(O)CC2Cc3c(cccc3OCC(=O)O)CC21)OC(=O)OCC(=O)O (centres unmarked)", 0],
  ["CCCCCC(CCC1C(O)CC2Cc3c(cccc3OCC(=O)O)CC21)OC(=O)OCC (centres unmarked)", 0.92],
  ["CCCCCC(O)CCC1C(OC(=O)CCC(=O)O)CC2Cc3c(cccc3OCC(=O)O)CC21 (centres unmarked)", 0],
  ["CCCCC[C@@H](CC[C@@H]1[C@H]2Cc3cccc(OCC(=O)O)c3C[C@H]2C[C@H]1O)OC(=O)[C@@H](N)C(C)C", 0.00443],
  ["CCCCCC(CCC1C(O)CC2Cc3c(cccc3OCC(=O)O)CC21)OC(=O)CO (centres unmarked)", 0.157],
  ["CCCCCC(CCC1C(O)CC2Cc3c(cccc3OCC(=O)O)CC21)OCOC(=O)C(C)(C)C (centres unmarked)", 0.892]
]}

# input compound: CCCCCC(CCC1C(OC(=O)CC)CC2Cc3c(cccc3OCC(=O)O)CC21)OC(=O)CC (centres unmarked) [Prodrug LXX, treprostinil dipropionate] ; wanted: its Trep Concentration 20 min 0.764
